Protocol description: Enzymatic stability in dog liver homogenate (S9)
Type: in vitro ADME
Measurement setup: 37° C., 20 μg/mL
Experimental: Dog liver was obtained fresh from Pharmakon USA (Waverly, Pa.). Liver homogenate was prepared following a standard protocol. […] The concentration of protein in the S9 fraction was determined using a Bio-Rad Protein Assay Kit II, with bovine serum albumin as standard. Esterase activity was determined using o-nitrophenyl butyreate as substrate and activity was calculated based on the increase in absorbance at 420 nm after a 1 min incubation. […]
Value type: Biological t½ (min) (Dog) Liver

{"columns": ["Compound", "Biological t½ (min) (Dog) Liver"],
 "data": [
  ["C[C@H](Cn1cnc2c(N)ncnc21)OCP(=O)(OCOC(=O)NC(C)(C)C)OCOC(=O)NC(C)(C)C [Bis-tBuNCOM PMPA]", "166.5 min"],
  ["CC(C)OC(=O)OCOP(=O)(CO[C@H](C)Cn1cnc2c(N)ncnc21)OCOC(=O)OC(C)C [Bis-isopropylCOM PMPA]", "<5 min"]
]}

Short answer for CCOC(=O)OCOP(=O)(CO[C@H](C)Cn1cnc2c(N)ncnc21)OCOC(=O)OCC [Bis-EtCOM PMPA, Bis-ethyl Oxymethyl Carbonate of PMPA] : Biological t½ (min) (Dog) Liver was <5 min
